assay: in vivo; conditions: male, Sprague-Dawley, rat, in vivo, po, 2 g/kg
observed.property: MRT (h)
Numbers only; they are read as h.

Report MRT for Cc1c([C@H](C)[C@@H]2NC[C@@H](C)C[C@H]2O)ccc2c1C[C@H]1[C@H]2CC=C2C[C@@H](O[C@@H]3O[C@H](CO)[C@@H](O)[C@H](O)[C@H]3O)CC[C@@]21C
10.5

Return MRT (reported value) for this compound: Cc1c([C@H](C)[C@@H]2NC[C@@H](C)C[C@H]2O)ccc2c1C[C@H]1[C@H]2CC=C2C[C@@H](O)CC[C@@]21C
38.8

Provide only the value of recorded MRT for Oc1ccc(/C=C/c2cc(O)cc(O)c2)cc1
13.2

Supply reported MRT belonging to this compound: CC1=C2C(=O)[C@H]3[C@@H](CC=C4C[C@@H](O)CC[C@@]43C)[C@@H]2CC[C@]12O[C@@H]1C[C@H](C)CN[C@H]1[C@H]2C
38.8

Find the measured MRT of OC[C@H]1O[C@@H](Oc2cc(O)cc(/C=C/c3ccc(O)cc3)c2)[C@H](O)[C@@H](O)[C@@H]1O and report it.
13.2
